System: Mus musculus
Experiment: Intraperitoneal dose inhibiting acetic acid induced writhing in 50% of mice
Assay type: functional
Conditions: Mus musculus, ip; read-out: ED50
assayReadout: ED50 (mg/kg)
One number for each entry, in mg/kg.

Solved entries (count: 2):
smilesstr=CC(=O)O[C@@]1(C(C)(C)C)CCN2C[C@@H](c3ccccc3)CC[C@@H]2C1.Cl unitabbreviation=mg/kg endpointvalue=2.6
smilesstr=CC(=O)O[C@@]1(C(C)(C)C)CCN2C[C@@H](c3ccc(Cl)cc3Cl)CC[C@@H]2C1.Cl unitabbreviation=mg/kg endpointvalue=300

Enquiry: Please respond with reported ED50 (system Mus musculus) for CC(=O)O[C@]1(C(C)(C)C)CCN2C[C@H](c3ccccc3Cl)CC[C@@H]2C1.Cl .
Return: 28

---

Assay: Levels of homovanillic acid (HVA) in rat brain 2 hour after an intraperitoneal injection dose
Type: ADME, tissue-based
Conditions: in vivo, ip
assayReadout: HVA level (%)
Give bare numbers, in %.

compound=CC(C)(C)[C@]1(O)CCN2C[C@@H](c3ccc(C(F)(F)F)cc3)CC[C@@H]2C1.Cl assayreadout="HVA level" endpointvalue=369
compound=CC[C@]1(O)CCN2C[C@@H](c3ccc(Cl)cc3Cl)CC[C@@H]2C1 assayreadout="HVA level" endpointvalue=284
compound="CC(C)(C)[C@]1(O)CCN2C[C@@H](c3ccc(Cl)cc3Cl)CC[C@@H]2C1.Cl (stereo in doubt; 5e)" assayreadout="HVA level" endpointvalue=557
compound=CC(C)(C)[C@]1(O)CCN2C[C@@H](c3ccccc3)CC[C@@H]2C1.Cl assayreadout="HVA level" endpointvalue=308
compound=Cl.O[C@]1(c2ccccc2)CCN2C[C@@H](c3ccccc3Cl)CC[C@@H]2C1 assayreadout="HVA level" endpointvalue=99
compound="CC(C)(C)[C@]1(O)CCN2C[C@@H](c3ccc(Cl)cc3Cl)CC[C@@H]2C1.Cl (stereo in doubt; (+)-5e)" assayreadout="HVA level" endpointvalue=283
compound=CC(C)[C@]1(O)CCN2C[C@@H](c3ccc(Cl)cc3Cl)CC[C@@H]2C1.Cl assayreadout="HVA level" endpointvalue=280
compound=CC(C)(C)[C@]1(O)CCN2C[C@@H](c3ccc(Cl)cc3)CC[C@@H]2C1.Cl assayreadout="HVA level" endpointvalue=290

Take each entry in turn and give its HVA level.
1. Cl.O[C@@]1(c2ccccc2)CCN2C[C@@H](c3ccccc3Cl)CC[C@@H]2C1
2. CC(C)(C)[C@]1(O)CCN2C[C@@H](c3ccccc3Cl)CC[C@@H]2C1
3. CC(C)(C)[C@]1(O)CCN2C[C@@H](c3cccc(Cl)c3)CC[C@@H]2C1.Cl

Return:
340
449
103

---

Test system: Mus musculus
Experiment: Intraperitoneal dose inhibiting acetic acid induced writhing in 50% of mice
Assay type: functional
Details: Mus musculus, ip; read-out: ED50
assayReadout: ED50 (mg/kg)
One number for each entry, in mg/kg.

Solved entries (count: 2):
compound=CC(=O)O[C@@]1(C(C)(C)C)CCN2C[C@@H](c3ccc(Cl)cc3)CC[C@@H]2C1.Cl measurementtarget="Mus musculus" endpointvalue=4
compound="CC(=O)O[C@@]1(C(C)(C)C)CCN2C[C@@H](c3ccccc3Cl)CC[C@@H]2C1.Cl (stereo in doubt; 23)" measurementtarget="Mus musculus" endpointvalue=36

Enquiry: Read off the recorded ED50 for CC(=O)O[C@@]1(c2ccccc2)CCN2C[C@@H](c3ccccc3Cl)CC[C@@H]2C1.Cl
Return: 2.8
